target-entity: THR alpha (Homo sapiens, UniProt P10827)
Construct: expressed in transfected cells; host or cells: HEK293T (ATCC CRL-3216)
Sequence (P10827 1-410 isoform P10827-2): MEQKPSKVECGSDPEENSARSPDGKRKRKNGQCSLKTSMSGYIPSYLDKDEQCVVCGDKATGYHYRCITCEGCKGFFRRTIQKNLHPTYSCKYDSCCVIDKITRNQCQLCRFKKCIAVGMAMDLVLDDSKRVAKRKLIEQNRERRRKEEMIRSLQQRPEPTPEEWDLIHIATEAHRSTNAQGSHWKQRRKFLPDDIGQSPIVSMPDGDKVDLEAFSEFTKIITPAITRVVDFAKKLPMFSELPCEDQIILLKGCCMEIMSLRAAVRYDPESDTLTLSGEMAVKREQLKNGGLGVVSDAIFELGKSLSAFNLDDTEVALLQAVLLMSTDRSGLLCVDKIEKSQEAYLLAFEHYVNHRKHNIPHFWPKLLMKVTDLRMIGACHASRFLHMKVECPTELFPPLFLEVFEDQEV
Sequence (P19793 whole entry partner): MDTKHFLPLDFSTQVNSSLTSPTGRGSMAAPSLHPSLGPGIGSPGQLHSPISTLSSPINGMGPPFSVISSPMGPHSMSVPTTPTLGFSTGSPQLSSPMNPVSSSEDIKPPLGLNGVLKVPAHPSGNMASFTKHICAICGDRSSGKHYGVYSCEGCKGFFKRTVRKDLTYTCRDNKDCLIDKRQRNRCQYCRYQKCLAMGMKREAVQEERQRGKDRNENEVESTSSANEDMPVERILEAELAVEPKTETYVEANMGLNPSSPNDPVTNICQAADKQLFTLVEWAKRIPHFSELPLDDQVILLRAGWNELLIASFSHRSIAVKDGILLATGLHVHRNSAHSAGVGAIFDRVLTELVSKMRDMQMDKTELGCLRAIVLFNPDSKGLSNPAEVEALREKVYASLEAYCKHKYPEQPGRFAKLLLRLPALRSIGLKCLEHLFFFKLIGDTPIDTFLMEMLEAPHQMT
protocol-summary: HEK293T THR alpha/RXR luciferase reporter assay (Assay 2)
Type: cell-based
assay-conditions: Table 4; THR-alpha; Assay 2; read-out: Activity category Assay 2 (EC50, THR-alpha agonist activity)
property-measured: EC50

Would you please look over these solved cases?
input-smiles	EC50
Cc1cc(-n2nc(N)c(=O)[nH]c2=O)cc(C)c1Oc1cc(C(C)C)c(=O)[nH]n1	> 10 µM
Nc1nn(-c2cc(Cl)c(Oc3cc(-c4ccc5c(c4)CCCO5)c(=O)[nH]n3)c(Cl)c2)c(=O)[nH]c1=O	> 10 µM

# input for lookup
Challenge: Looking for the measured EC50 of CC(C)c1cc(Cc2c(Cl)cc(-n3nc(N)c(=O)[nH]c3=O)cc2Cl)n[nH]c1=O , can you help?
Response given: < 0.05 µM

---

target-entity: THR alpha (Homo sapiens)
Construct: expressed in transfected cells; host or cells: HEK293T (ATCC CRL-3216)
protocol-summary: HEK293T THR alpha/RXR luciferase reporter assay (Assay 2)
Type: cell-based
assay-conditions: HEK-293T, Table 5; Assay 2; THRα; read-out: Activity category Assay 2 THRα (Emax)
Emax overview

Look over these answered cases.
compound	property-measured	test-result
C[C@H]1C[C@H](c2cc(Oc3c(Cl)cc(-n4nc(N)c(=O)[nH]c4=O)cc3Cl)n[nH]c2=O)C1 (single isomer, unassigned)	Emax	50 to 75%
Cc1cc(-n2nc(C#N)c(=O)[nH]c2=O)cc(C)c1Cc1cnc2[nH]cc(C(C)C)c2n1	Emax	50 to 75%
CC(C)/C=C1\C(=O)Nc2ccc(Oc3c(Cl)cc(-n4nc(N)c(=O)[nH]c4=O)cc3Cl)cc21	Emax	> 75%

Challenge: // query Emax value for entry CC(c1cc(Oc2c(Cl)cc(-n3nc(N)c(=O)[nH]c3=O)cc2Cl)n[nH]c1=O)C1CC(F)(F)C1 (single isomer, unassigned) [Compound 61-A]
Response given: 50 to 75%

Challenge: Entry Nc1nn(-c2cc(Cl)c(Oc3cc(-c4cccc(F)c4)c(=O)[nH]n3)c(Cl)c2)c(=O)[nH]c1=O has what Emax?
Response given: 50 to 75%

Challenge: What does the data say about its Emax? Entry: CC(C)c1cc(=O)[nH]c2ccc(Oc3c(Cl)cc(-n4nc(N)c(=O)[nH]c4=O)cc3Cl)cc12
Response given: < 50%

Challenge: Would you mind telling me what Emax value was observed for O=c1cc(-c2ccc3ccccc3c2)c(Oc2c(Cl)cc(-n3ncc(=O)[nH]c3=O)cc2Cl)n[nH]1 ?
Response given: < 50%

Challenge: Would you kindly share the measured Emax for Nc1nn(-c2cc(Cl)c(Oc3cc(-c4ccccc4)c(=O)[nH]n3)c(Cl)c2)c(=O)[nH]c1=O ?
Response given: 50 to 75%

Challenge: Name the recorded Emax for Cc1c(-n2nc(N)c(=O)[nH]c2=O)cc(Cl)c(Oc2cc(C(C)C)c(=O)[nH]n2)c1Cl .
Response given: < 50%

Challenge: Requested field: Emax. Item: Nc1nn(-c2cc(Cl)c(Oc3cc(C4CCc5ccccc5C4)c(=O)[nH]n3)c(Cl)c2)c(=O)[nH]c1=O (stereo not shown)
Response given: < 50%
